Taken from patent EP4410284A1.

# Test system: GM16513 cells
# experiment_summary: Catalase import immunofluorescence, high-content screening (% importing cells)
# Assay type: cell-based, human
# run_conditions: GM16513 cells, 10 µM, 3 days
property: % Importing cells (%)
Express it in %; write the number only.

Req: Give me measured % Importing cells, please, for this molecule: `Cc1[nH]c2ccccc2c1CCNCc1ccc(/C=C/C(=O)NO)cc1`
Resp: 44

Req: Give me measured % Importing cells, please, for this molecule: `O=C(CCCCCCC(=O)Nc1ccc(CN[C@H](C(=O)OC2CCCC2)c2ccccc2)cc1)NO`
Resp: 91

Req: Give me measured % Importing cells, please, for this molecule: `Nc1cc(F)ccc1NC(=O)c1ccc(CNC(=O)/C=C/c2cccnc2)cc1`
Resp: 64

Req: Give me measured % Importing cells, please, for this molecule: `O=C(NO)c1cccc(C(=O)NCCc2ccccc2)c1`
Resp: 23

Req: Give me measured % Importing cells, please, for this molecule: `CC(=O)Nc1ccc(C(=O)Nc2cc(-c3cccs3)ccc2N)cc1`
Resp: 88

Req: Give me measured % Importing cells, please, for this molecule: `CCCCOc1ccc(CC(=O)NO)cc1`
Resp: 25

Req: Give me measured % Importing cells, please, for this molecule: `O=C(/C=C/c1ccc(O)c(O)c1)c1ccc(O[C@@H]2O[C@H](CO)[C@@H](O)[C@H](O)[C@H]2O)c(O)c1O`
Resp: 22

Req: Give me measured % Importing cells, please, for this molecule: `COc1ccc(Cn2ccc3ccc(C(=O)NO)cc32)cc1`
Resp: 7

Req: Give me measured % Importing cells, please, for this molecule: COc1cc(C=CC(=O)O)cc(OC)c1O (stereo in doubt)
Resp: 18

Req: Give me measured % Importing cells, please, for this molecule: `Cc1cc(C)cc(C(=O)NOCCCCCC(=O)NO)c1`
Resp: 95

Req: Give me measured % Importing cells, please, for this molecule: `Oc1cc(O)cc(/C=C/c2c(O)cccc2O)c1`
Resp: 9

Req: Give me measured % Importing cells, please, for this molecule: `O=C(NO)c1ccc(CN(c2cnccn2)c2cnccn2)cc1`
Resp: 52

Req: Give me measured % Importing cells, please, for this molecule: CN1CCc2c(c3ccccc3n2Cc2ccc(C(=O)NO)cc2)C1.Cl [Tubastatin A (Hydrochloride), Tubastatin A]
Resp: 37

Req: Give me measured % Importing cells, please, for this molecule: `CC1(C)c2cccc(C(=O)NO)c2CN1c1cnc(C(F)(F)F)cn1`
Resp: 4

Req: Give me measured % Importing cells, please, for this molecule: `CC(=O)Nc1ccc(C(=O)Nc2ccccc2N)cc1`
Resp: 18

Req: Give me measured % Importing cells, please, for this molecule: `Nc1ccccc1NC(=O)CCCCCC(=O)Nc1ccccc1`
Resp: 55

Req: Give me measured % Importing cells, please, for this molecule: `CC(/C=C/C(=O)NO)=C\[C@@H](C)C(=O)c1ccc(N(C)C)cc1`
Resp: 76

Req: Give me measured % Importing cells, please, for this molecule: `Cn1c(/C=C/C(=O)NO)ccc1/C=C/C(=O)c1cccc(F)c1`
Resp: 21

Req: Give me measured % Importing cells, please, for this molecule: `CC(C)(C)OC(=O)Nc1ccc(-c2cc(C(=O)NCCCCCCC(=O)NO)no2)cc1`
Resp: 85
